From: patent EP0052564A1

assaySummary: Solubility (in water, ethanol, methyl pyrrolidone)
Format: physicochemical
testConditions: methyl pyrrolidone
quantityKind: Solubilités : dans la méthyl pyrrolidone (%)

>>> measured("O=C(O)C(=O)Nc1nc(-c2ccco2)cs1 [Exemple 8, Acide (α furyl-4 thiazolyl-2) oxamique]")
25
>>> measured("CCOC(=O)C(=O)Nc1nc(-c2ccco2)cs1 [Exemple 7, (α furyl-4 thiazolyl-2) oxamate d'éthyle]")
50
>>> measured("CCOC(=O)C(=O)Nc1nc(-c2ccsc2)cs1 [Exemple 6]")
50
>>> measured("CCOC(=O)C(=O)Nc1nc(-c2cccs2)cs1 [Exemple 1]")
50

[a] O=C(O)C(=O)Nc1nc(-c2cccs2)cs1 [Exemple 3]
[b] O=C(O)C(=O)Nc1nc(-c2cccs2)cs1 [Exemple 2, Acide (α thienyl-4 thiazolyl-2) oxamique]
Field: lower Solubilités : dans la méthyl pyrrolidone | Options: a / b Give the chosen item's label as your response. a
